Assay: protease stability score; higher = more stable; yeast display proteolysis, trypsin and chymotrypsin;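 note: relative to predicted unfolded state with 0 unfolded-like and 1 meaning tenfold more protease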
Assign 1 whenever protease stability score does not fall below 1; assign 0 whenever it does.

>>> group_label("DDEEHEARRVLEELIRVWITGNEELEDRLMDPNVRFVYGEYDLHGMEHFRHLLTVLKDQADHVSDVKLHDLEIQGDKVITRSVVDGVFNGRRFHRSQIIILIKVNGKWRIKSLHIH")
1
>>> group_label("SQEEEIVLHISQRLLRALSTGNEKEFEELLDPNARVSEIQGDKSYSHHGREEFLIFMREWFEKMGIKHFHIEHIDVQGNWVRVRGRITFNGREHDVNILILVIDGRVRSFTIEIK")
1
>>> group_label("DEEDHILLEIMRRVFESIMTGDEDLFRELADPNVRIRIGNKEMVGWEHIVKTLRKEDEDLGAKHKSFTLDDEDLIGNYAHVEGTLHIEFNGKDIHRHIRINVEVIDGRVKSIRMEDK")
0
>>> group_label("DEDKQWIEEFIELHLRELETGDEQRVDENLDPNVKLRINGKEVHGRERISHLLKELLRKVKNLKVELHDIRVQGDFLEIEGTLRIGDKELDLYVIAHKVNGKWIVKERRIH")
1
>>> group_label("DKFERDLEEALREVLEALETGDEDRLLNLFDPHARIDIDGRDLHGWEDLTRELREIRIRHIHLHDRRIQGEWIHFDTITDGEFNGQRTTVRTHILMLKFDGRWMIREVTFI")
1
>>> group_label("TEKEELYRKIYELLENLLFTGDEHAWRNNMDPHVKILLNIDGKIHDLHGWHAWHLVLRLLGIDHMEFKDFHVQGDKFHLELTVDFDGREHIMRVDIIVVNGKITSVRVSIE")
1
>>> group_label("DEDETFMREFLKELIHSLHTGDEETLLRLADPHTRVVINGRTLIGWETFDKLLKEARVHHHEIKRVRFFDGQVETDTRTDGRIDGVRVEIETTLIVKKVNGRWYMRSVIIT")
0
>>> group_label("DEVKEDTRRFFERIERALKTGDEDELKRMMDPHVQIHAENHEFHGREALRHFLERYDVVRDIKINDWRIINGRIQIDGEVEGVFNGRDKETHTIMILLKINGKWVITSLTIN")
1
>>> group_label("SEEEEIYKRAHKFFADVFLTGNEKELEHMLDPNVRLHVNGQDHHGWTDVFRIFNFLGADHYDVKHLDIQGDKVDLHSEVDINGRTRRIIFHSLKVNGQWKITHVQVD")
1
>>> group_label("SEKTHEFQKLYHEWIRVEWTGDFHMLSHMADPNTRVELIINGRTVERIGREDMIELVRRLKHEIRFHDFDIKRVRIQGEKIYADTHEDGEINGQRRETDAKLELDVYNGKIESVFWYIE")
1

----------
Experiment: protease stability score; higher = more stable; yeast display proteolysis, trypsin and chymotrypsin;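 note: relative to predicted unfolded state with 0 unfolded-like and 1 meaning tenfold more protease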
Assign YES whenever protease stability score does not fall below 1; assign NO whenever it does.

>>> group_label("EEDFRLVDKFIKDFWKSFRTGDEDLFKKYLDPHVQLEVNGQEIHGREQLSRVLVELIIEFGVDHVEFRLHDWHIYDGQAEHHTHVRLKYGDKNVRRTLHIFMLKVDGRWILESMVIR")
"YES"
>>> group_label("DEEKELNENLAKIILHMFHTGDEKRWSKMADPHMRANINGVTIHGRELVIKEFLHWRHRLGVKHEEIHHIDIQGDKVRTDSHVDIDGQRVNIILRVVVVNGRLHSEEVEIR")
"NO"
>>> group_label("HKEHRDAHELLERWLRSSVTGDEDTLSELLDPNVKIEIGNKHVHGREEVSRHFSERAHRIDHVRLHVDDLYIQGEKVHVDLTLEINVGDWRQTIKVEYVVLKVNGRWRIHTIHER")
"NO"
>>> group_label("DDREEKIKRAWETFVHNVRTGDEDSNEELADPNVKVLFNGREFHGMEQLSKFFKHLRVHDFVLKDIRVVGDKVHVEGLVDGEINGKRELTTMHMVFIKFNGRWIIQSVEFK")
"YES"
>>> group_label("DEKRKLAEEIMRLLLHAYKTGDEELIHKLADPDTRVIINGVDLHGWEEMNRHLEEIIRQFDHWDLKIRDFRIQGDKYHIHGHLIHIQGDKHIRHDVNFHIVFVNGRQTSNHIDIH")
"YES"
>>> group_label("SEEKQDVDEFIKRVIETLETGDWRNRHDLLDPNVRIDIDGVELIGRHIALELDWYFLRHARVRMYIRHVNVQGEYMDVDGRLHIHQGDKNIHIETRLIVHKINGRWLIKSIELR")
"YES"
>>> group_label("RQEEHDMEYAREIVERVLDTGDEHLMEEYFDPNAKLRIGDKEDHGREVFAHWVREIRVRHVQLTDHRLVGDKLEFDIELDININGREHRTKVHLIIRKVNGKWFIQHVEIR")
"YES"
>>> group_label("SEDEKAVEDLFKLWVRDLVTGDEDSINKLLDPNARVEIGDKEFHGMEDVVRFLLHIRFKHVEMHDMRVQGNKATLHVDIRGVVDGRDRELDTILIIEKVNGKWYLHHQKIN")
"YES"
>>> group_label("SEDEEEWHEATHLLVESLKTGDWKDLSRLADPNAKLHVGEKTVIGRELVSKHLKNRMTELGINHIHIEDRESQGDKIFIISHIHVNGREMKSIFIILKIDGRWILHSMEIREH")
"NO"
>>> group_label("NEREEHIRRLAELVRELIDTGDFDRLIKNADPNVRLEMEIGDKRIEHHGRERVHEQLEEFERRFKNATFIWKRIDVQGEKVLLDGTIRINGQEHEMHWDNQMFNGRIHSIRIDVR")
"YES"
>>> group_label("DEEKEEYNRKAKEFWQRWLTGDEKRLRELADPNVRLDIDGVELVGREEFVHAVHEFLRHIRFKDMKVHRTDNIDGKNESDFEVTGDVNGQDMKSRTHVLILLVNGKIKEVEHRWK")
"NO"
>>> group_label("SEEEEILRIALEIFIHLWQTGDEDMLKHYADPEVRVHFDGRDYHGMNDLQFFVHELRKRYPGIRLHIEHVEIEVYNGRVFIIIHQRLDFNGQVITEEVRLIVIKINGRWDIHSVKYHSH")
"NO"
>>> group_label("TEEEEIYERVARLWAEAMLTGDWKTETNLLDPHTRYDYDVDGKHIHLHGREHFKKMLEDLLRHLRFRIRVEEIHVYGEKVEVHGKLDIHVGDKTTHEHTSVQIYVVNGKMKSIRVHSH")
"YES"
>>> group_label("DELDKRTREFTRLFLEWEETGDFHTMLNFLDPNARVDVNGVHLIGREKMVEHFLTEHERIDHREWHLRRIHYYDGRSDIDGHITLFVDGQEIHIRVHVIFFVVDGRMHMVEKRII")
"NO"
>>> group_label("DHEEKHLEHFLHLITHLEHTGDERTLEKLVDPHVRHEFNGKELHGRERAVRWSEELRQKMGADHWSIKRVNVFDGVVHLHTELEVNGVRVHFHIDVRVVDGRVKHIKIRNE")
"NO"
>>> group_label("HEDEEISQNMMETMLRIIHTGDWHRFTELFDPHVRIEVNIGDKHLESVGREEARKWLERFKNRRTEIRDAKVRVQGDKVEIRIDGNVNVDGKEKHVEIILYIEKIDGRWLVHSVIIIIE")
"YES"
>>> group_label("DERKKATKETMRLEEEARNTGDEHELTKLVDPHVRLVIDGVNFIGWEVFLKRFNDLGADHVELRIDEIELIGDKVIVHGTLRIRVGDKETQEKVELYWLKINGRWVLEQVNHK")
"YES"
>>> group_label("DEKERESEEFIRRFISVYETGDWKTMFELADPHTRMIDIVNGRDIEIIGREAIRHIFEERMRLLGIKHFHIDHSSRQGNKYHQKVTIRVDGQEIEAHVHVIVVDGVLKQIEVRSK")
"YES"
>>> group_label("SEEEEHLLKWFEELITLLLTGDEDRLSELMDPNVRIEIGDKTLVGMEWANHDYTRKIRERGWRIEIIIRELRAQGDKVRARTELRIRFDGREITYETEMILVVVNGRFKRIETRVH")
"YES"
>>> group_label("SEEDEEFKHHIKLLIESLETGDWRTDRRLADPHVRLEVGDKTIHGMDEYLEFMSEIRFTRLEISSVEIQGDKLHANGETDGIVNGKRVKVESTFIIIKVDGRWIIEHERMH")
"NO"
>>> group_label("SEREHEALRWMELIIDLWITGDEEFTHKLADPHAKYEYGDKVIHGMEEFTRIMNEWRIKRVHLHEFRFIGNFSHSNMHRRGNIDGVDVDTEITVTVVIVNGRISSISIEVR")
"NO"
>>> group_label("SELEKFHEESLKSVLESWITGDEHLNRDLVDPDAKLNVNGREHHGWELITILLSQMRVHDFKRRDIRFQGDKIFIDGEIDGEINGQRIRLRIDIIAVKVNGKWLIKEVRVH")
"YES"
